- assayedSystem: T1, human IL-33 (R&D Systems, #3625-IL-010/CF) (human) (UniProt O95760)
- T1 sequence (looked up): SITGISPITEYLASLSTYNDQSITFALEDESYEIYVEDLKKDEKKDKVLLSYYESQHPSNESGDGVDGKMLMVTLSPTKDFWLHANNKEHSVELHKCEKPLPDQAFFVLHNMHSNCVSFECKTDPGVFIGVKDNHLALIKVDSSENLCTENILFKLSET
propertyName: Ph-p38 MFI at 2 nM Ab (500 pM human IL-33, primary basophils) (MFI)
Numbers only, in MFI.

Known results for binders:
>  <binder>
H4H9667P (antibody, from another filing, IgG4, V domains shown) VH: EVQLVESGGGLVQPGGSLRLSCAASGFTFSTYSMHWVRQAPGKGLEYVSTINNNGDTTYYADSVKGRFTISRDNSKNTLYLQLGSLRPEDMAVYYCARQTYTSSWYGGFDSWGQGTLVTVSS VL: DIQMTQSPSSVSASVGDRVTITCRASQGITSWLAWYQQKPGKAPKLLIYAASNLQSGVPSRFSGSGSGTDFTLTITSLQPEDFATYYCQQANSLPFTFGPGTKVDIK

>  <experimentalResult>
68

$$$$
>  <binder>
H4H9662P (antibody, from another filing, IgG4, V domains shown) VH: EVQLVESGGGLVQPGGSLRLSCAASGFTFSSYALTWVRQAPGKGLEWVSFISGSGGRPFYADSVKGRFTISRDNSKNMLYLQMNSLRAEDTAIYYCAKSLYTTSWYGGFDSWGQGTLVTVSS VL: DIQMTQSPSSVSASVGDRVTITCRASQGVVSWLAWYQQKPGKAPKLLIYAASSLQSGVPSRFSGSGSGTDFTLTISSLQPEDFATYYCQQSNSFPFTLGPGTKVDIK

>  <experimentalResult>
44

$$$$

I'm hoping you can list Ph-p38 MFI at 2 nM Ab (500 pM human IL-33, primary basophils) for every binder here, please.
1. H4H9663P (antibody, from another filing, IgG4, V domains shown) VH: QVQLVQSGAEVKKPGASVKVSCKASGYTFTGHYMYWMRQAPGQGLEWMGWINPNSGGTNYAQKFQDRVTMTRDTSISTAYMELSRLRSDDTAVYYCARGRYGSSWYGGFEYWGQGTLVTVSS VL: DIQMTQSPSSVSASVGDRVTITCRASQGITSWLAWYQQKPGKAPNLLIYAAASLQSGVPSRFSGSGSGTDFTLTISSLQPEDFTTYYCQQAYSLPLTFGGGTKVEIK
2. H4H9675P (antibody, from another filing, IgG4, V domains shown) VH: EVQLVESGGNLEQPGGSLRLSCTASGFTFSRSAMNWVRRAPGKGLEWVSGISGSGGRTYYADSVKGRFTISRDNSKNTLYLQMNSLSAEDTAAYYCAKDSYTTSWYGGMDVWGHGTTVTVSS VL: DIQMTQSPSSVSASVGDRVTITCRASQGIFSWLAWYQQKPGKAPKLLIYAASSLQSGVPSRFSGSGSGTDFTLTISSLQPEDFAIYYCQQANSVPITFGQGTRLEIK

Result:
1. 80
2. 30
